Assign pKd to each entry below.
Target: T1, human CD39 (Accession No. NM_001776.6) expressed on cells (human, UniProt P49961 1-510)
T1 construct: whole, on cells; On Jurkat, 293T or SK-MEL28 cells; also called Jurkat/CD39; 293T/CD39
T1 sequence (looked up): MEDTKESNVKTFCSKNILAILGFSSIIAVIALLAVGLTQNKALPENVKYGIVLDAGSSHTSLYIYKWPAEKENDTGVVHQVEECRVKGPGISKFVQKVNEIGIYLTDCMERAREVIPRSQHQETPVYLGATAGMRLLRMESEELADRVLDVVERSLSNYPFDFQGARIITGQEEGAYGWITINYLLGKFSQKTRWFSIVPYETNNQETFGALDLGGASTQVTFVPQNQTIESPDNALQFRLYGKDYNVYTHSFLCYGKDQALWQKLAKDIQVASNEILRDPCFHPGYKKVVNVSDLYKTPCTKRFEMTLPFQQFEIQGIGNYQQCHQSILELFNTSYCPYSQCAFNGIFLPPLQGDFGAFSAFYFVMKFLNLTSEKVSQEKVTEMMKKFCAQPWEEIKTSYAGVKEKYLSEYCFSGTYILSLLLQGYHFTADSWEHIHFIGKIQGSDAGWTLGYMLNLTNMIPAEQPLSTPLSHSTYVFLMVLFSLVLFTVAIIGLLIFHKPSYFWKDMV
Assay: flow cytometry, Jurkat/TIM-3 + CD39 cells, KD from MFI
One number for each entry, as −log10 of the molar value.

These solved cases illustrate the format of a correct answer.
binder: I67_sc (antibody, scFv-Fc homodimer, anti-CD39 (mouse variable regions); also called scFv-Fc homodimeric antibody of anti-CD39_scFv antibody I67; not shown: linker and Fc-LALA (human IgG1 Fc with L234A and L235A)) scFv: DVQLQESGPSLVQPSQSLSINCTVSGFSLSSYGVHWVRQSPGKGLEWLGVIWRRGSTDYNAAFMSRLSITKDNSKSQVFFKMNRLQADDTATYYCAKGISTATSWFAYWGQGTLVTVSAGGGGSGGGGSGGGGSGGGGSDIVMTQSHKFMSTSVGDRVSVTCKASQNVGTNVAWYQQKPGQSPKALIYSASYRYSGVPDRFTGSGSGTDFTLTISNVQSEDLAEYFCQQYNSYPLTFGAGTKLELK
pKd: 9.68

binder: T86_sc (antibody, scFv-Fc homodimer, anti-CD39 (mouse variable regions); also called scFv-Fc homodimeric antibody of anti-CD39_scFv antibody T86; not shown: linker and Fc-LALA (human IgG1 Fc with L234A and L235A)) scFv: QIQLVQSGPELKKPGETVKISCEASGYTFINYGMNWVKQAPGKGLKWMGWINTYTGEPTYADDFKGRFAFSLETSANTAYLQINNLKNEDTATYFCARKGYYGYPNYYAMDYWGQGTSVTVSSGGGGSGGGGSGGGGSGGGGSDIVMTQSQKFMSTSVGDRVSITCKASQNVGTAVAWYQQKPGQSPKLLIYSASNRYTGVPDRFTGSGSGTDFTLTISNMQSEDLADYFCQQYSSYPITFGTGTKLEIK
pKd: 8.65

binder: mAnE67_sc (antibody, scFv-Fc homodimer, anti-CD39 (mouse variable regions); also called scFv-Fc homodimeric antibody of anti-CD39_scFv antibody mAnE67; not shown: linker and Fc-LALA (human IgG1 Fc with L234A and L235A)) scFv: EVQLVESGGGLVKPGGSRKLSCAASGFTFSDYGMHWVRQAPEKGLEWVAYISSGSSIIYYADTVKGRFTISRDNAKNTLFLQMTGLRSEDTAMYYCARKDYPYAMDYWGQGTSLAVSSGGGGSGGGGSGGGGSGGGGSSIVMTQTPKFMSTSVGDRVSVTCKASQNVGTNVAWYQQKPGQSPKALIYWASNRFTGVPDRFTGSGSGTDFTLTISNVQSEDLADYFCQQYSSSPYTFGSGTKLEIK
pKd: 9.47

binder: Tre_291_sc (antibody, scFv-Fc homodimer, anti-CD39 (mouse variable regions); not shown: linker and Fc-LALA (human IgG1 Fc with L234A and L235A)) scFv: QVQLKQSGPGLVQPSQSLSITCTVSGFSLTSYGVHWVRQSPGKGLEWLGVIWRRGSTDYNAAFMSRLSITKDTSKSQVFFKMNSLQTDDTAIYYCAGVRGDAMDYWGQGTSVTVSSGGGGSGGGGSGGGGSGGGGSDIVMTQSHKSMSTSVGDRVSVTCKASQNVGTNVAWYQQKPGQSPKALIYSASYRYSGVPDRFTGSGSGTDFTLTISNVQSEDLAEYFCQQYNSYPLTFGGGTKLEIK
pKd: 9.04

[ask] Assign pKd to the following record: 6-3hIG_sc (antibody, scFv-Fc homodimer, anti-CD39; also called scFv-Fc homodimeric antibody of anti-CD39_scFv antibody (humanized) 6-3hIG; not shown: GGGG linker and Fc-LALA (human IgG1 Fc with L234A and L235A)) scFv: QVQLVQSGAELVKPGASVKLSCKASGFSIKDTYVHWVKQAPGKGLEWIGKIDPANVNTKFDPKFQGRVTITADTSTNTAYLQLSSLRSEDTAVYYCALYGYDDDAYYFDYWGQGTLVTVSSGGGGSGGGGSGGGGSGGGGSEIVLTQSPASLSVSPGERATISCRASESVDNYGISFMNWFQQKPGQAPKLLIYAASNQGSGVPARFSGSGSGTDFTLTISSLEPEDFAVYYCQQSKEVPYTFGQGTKLEIK
[reply] 7.47
